- Test system: Mycobacterium avium
- assay-comment: Antimycobacterial activity against Mycobacterium avium serovar 4 after 14 days by agar dilution method
- Format: functional
- applied-conditions: serovar 4, 336 h
Documented MIC50 across a set of molecules

{"molecule": "COc1c(N2CC3(CC3)[C@](C)(N)C2)c(F)cc2c(=O)c(C(=O)O)cn([C@@H]3C[C@@H]3F)c12", "MIC50 [µg/mL]": 1}
{"molecule": "C[C@H]1COc2c(N3CCN(C)CC3)c(F)cc3c(=O)c(C(=O)O)cn1c23.C[C@H]1COc2c(N3CCN(C)CC3)c(F)cc3c(=O)c(C(=O)O)cn1c23.O", "MIC50 [µg/mL]": 8}
{"molecule": "CO[C@H]1/C=C/O[C@@]2(C)Oc3c(C)c(O)c4c(O)c(c(/C=N/N5CCN(C)CC5)c(O)c4c3C2=O)NC(=O)/C(C)=C\\C=C\\[C@H](C)[C@H](O)[C@@H](C)[C@@H](O)[C@@H](C)[C@H](OC(C)=O)[C@@H]1C", "MIC50 [µg/mL]": 32}
{"molecule": "COc1c(N2CCNC(C)C2)c(F)cc2c(=O)c(C(=O)O)cn(C3CC3)c12 (centres undefined)", "MIC50 [µg/mL]": 2}

====

Each entry below carries its recorded MIC50.
- Test system: Mycobacterium intracellulare
- assay-comment: Antimycobacterial activity against Mycobacterium intracellular serovar 16 after 21 days by agar dilution method
- Type: functional
- applied-conditions: serovar 16, 504 h

{"compound": "COc1c(N2CCNC(C)C2)c(F)cc2c(=O)c(C(=O)O)cn(C3CC3)c12 (stereo not given)", "MIC50 (µg/mL)": 4}
{"compound": "C[C@H]1COc2c(N3CCN(C)CC3)c(F)cc3c(=O)c(C(=O)O)cn1c23.C[C@H]1COc2c(N3CCN(C)CC3)c(F)cc3c(=O)c(C(=O)O)cn1c23.O", "MIC50 (µg/mL)": 8}
{"compound": "COc1c(N2C[C@@H]3CCCN[C@@H]3C2)c(F)cc2c(=O)c(C(=O)O)cn(C3CC3)c12", "MIC50 (µg/mL)": 2}
{"compound": "COc1c(N2CC3(CC3)[C@](C)(N)C2)c(F)cc2c(=O)c(C(=O)O)cn([C@@H]3C[C@@H]3F)c12", "MIC50 (µg/mL)": 1}
{"compound": "CO[C@H]1/C=C/O[C@@]2(C)Oc3c(C)c(O)c4c(O)c(c(/C=N/N5CCN(C)CC5)c(O)c4c3C2=O)NC(=O)/C(C)=C\\C=C\\[C@H](C)[C@H](O)[C@@H](C)[C@@H](O)[C@@H](C)[C@H](OC(C)=O)[C@@H]1C", "MIC50 (µg/mL)": 2}

====

Listed below: MIC90 values for each entry.
- Test system: Mycobacterium tuberculosis
- assay-comment: Antimycobacterial activity against drug-susceptible Mycobacterium tuberculosis after 21 days by agar dilution method
- Format: functional
- applied-conditions: 504 h

{"compound": "COc1c(N2CC3(CC3)[C@](C)(N)C2)c(F)cc2c(=O)c(C(=O)O)cn([C@@H]3C[C@@H]3F)c12", "system-under-test": "Mycobacterium tuberculosis", "MIC90 / µg/mL": 0.06}
{"compound": "C[C@H]1COc2c(N3CCN(C)CC3)c(F)cc3c(=O)c(C(=O)O)cn1c23.C[C@H]1COc2c(N3CCN(C)CC3)c(F)cc3c(=O)c(C(=O)O)cn1c23.O", "system-under-test": "Mycobacterium tuberculosis", "MIC90 / µg/mL": 0.5}
{"compound": "COc1c(N2CCNC(C)C2)c(F)cc2c(=O)c(C(=O)O)cn(C3CC3)c12 (stereo not given)", "system-under-test": "Mycobacterium tuberculosis", "MIC90 / µg/mL": 0.25}
{"compound": "COc1c(N2C[C@@H]3CCCN[C@@H]3C2)c(F)cc2c(=O)c(C(=O)O)cn(C3CC3)c12", "system-under-test": "Mycobacterium tuberculosis", "MIC90 / µg/mL": 0.25}
{"compound": "CO[C@H]1/C=C/O[C@@]2(C)Oc3c(C)c(O)c4c(O)c(c(/C=N/N5CCN(C)CC5)c(O)c4c3C2=O)NC(=O)/C(C)=C\\C=C\\[C@H](C)[C@H](O)[C@@H](C)[C@@H](O)[C@@H](C)[C@H](OC(C)=O)[C@@H]1C", "system-under-test": "Mycobacterium tuberculosis", "MIC90 / µg/mL": 0.125}

====

Measured MIC90 of individual entries
- Tested on: Mycobacterium avium
- assay-comment: Antimycobacterial activity against Mycobacterium avium serovar 8 after 14 days by agar dilution method
- Format: functional
- applied-conditions: serovar 8, 336 h
measured-quantity: MIC90 (µg/mL)

{"compound": "COc1c(N2CC3(CC3)[C@](C)(N)C2)c(F)cc2c(=O)c(C(=O)O)cn([C@@H]3C[C@@H]3F)c12", "quantitative-readout": 2}
{"compound": "CO[C@H]1/C=C/O[C@@]2(C)Oc3c(C)c(O)c4c(O)c(c(/C=N/N5CCN(C)CC5)c(O)c4c3C2=O)NC(=O)/C(C)=C\\C=C\\[C@H](C)[C@H](O)[C@@H](C)[C@@H](O)[C@@H](C)[C@H](OC(C)=O)[C@@H]1C", "quantitative-readout": 128}
{"compound": "COc1c(N2CCNC(C)C2)c(F)cc2c(=O)c(C(=O)O)cn(C3CC3)c12 (centres undefined)", "quantitative-readout": 8}
{"compound": "C[C@H]1COc2c(N3CCN(C)CC3)c(F)cc3c(=O)c(C(=O)O)cn1c23.C[C@H]1COc2c(N3CCN(C)CC3)c(F)cc3c(=O)c(C(=O)O)cn1c23.O", "quantitative-readout": 32}

====

- Tested on: Mycolicibacterium fortuitum
- assay-comment: Antimycobacterial activity against Mycobacterium fortuitum after 3 days by agar dilution method
- Assay type: functional
- applied-conditions: 72 h

{"compound": "COc1c(N2C[C@@H]3CCCN[C@@H]3C2)c(F)cc2c(=O)c(C(=O)O)cn(C3CC3)c12 [MOXIFLOXACIN]", "system-under-test": "Mycolicibacterium fortuitum", "value-unit": "µg/mL", "MIC50": 0.125}
{"compound": "CO[C@H]1/C=C/O[C@@]2(C)Oc3c(C)c(O)c4c(O)c(c(/C=N/N5CCN(C)CC5)c(O)c4c3C2=O)NC(=O)/C(C)=C\\C=C\\[C@H](C)[C@H](O)[C@@H](C)[C@@H](O)[C@@H](C)[C@H](OC(C)=O)[C@@H]1C [RIFAMPIN]", "system-under-test": "Mycolicibacterium fortuitum", "value-unit": "µg/mL", "MIC50": 32}
{"compound": "C[C@H]1COc2c(N3CCN(C)CC3)c(F)cc3c(=O)c(C(=O)O)cn1c23.C[C@H]1COc2c(N3CCN(C)CC3)c(F)cc3c(=O)c(C(=O)O)cn1c23.O [LEVOFLOXACIN]", "system-under-test": "Mycolicibacterium fortuitum", "value-unit": "µg/mL", "MIC50": 0.25}
{"compound": "COc1c(N2CCNC(C)C2)c(F)cc2c(=O)c(C(=O)O)cn(C3CC3)c12 (stereo not given) [GATIFLOXACIN]", "system-under-test": "Mycolicibacterium fortuitum", "value-unit": "µg/mL", "MIC50": 0.125}
{"compound": "COc1c(N2CC3(CC3)[C@](C)(N)C2)c(F)cc2c(=O)c(C(=O)O)cn([C@@H]3C[C@@H]3F)c12", "system-under-test": "Mycolicibacterium fortuitum", "value-unit": "µg/mL", "MIC50": 0.125}

====

Listed next: entries and their corresponding MIC50.
- Test system: Mycobacteroides chelonae
- assay-comment: Antimycobacterial activity against Mycobacterium chelonae after 3 days by agar dilution method
- Format: functional
- applied-conditions: 72 h

{"compound": "CO[C@H]1/C=C/O[C@@]2(C)Oc3c(C)c(O)c4c(O)c(c(/C=N/N5CCN(C)CC5)c(O)c4c3C2=O)NC(=O)/C(C)=C\\C=C\\[C@H](C)[C@H](O)[C@@H](C)[C@@H](O)[C@@H](C)[C@H](OC(C)=O)[C@@H]1C [RIFAMPIN]", "result-modifier": ">", "MIC50 (µg/mL)": 128}
{"compound": "COc1c(N2C[C@@H]3CCCN[C@@H]3C2)c(F)cc2c(=O)c(C(=O)O)cn(C3CC3)c12 [MOXIFLOXACIN]", "result-modifier": "=", "MIC50 (µg/mL)": 32}
{"compound": "C[C@H]1COc2c(N3CCN(C)CC3)c(F)cc3c(=O)c(C(=O)O)cn1c23.C[C@H]1COc2c(N3CCN(C)CC3)c(F)cc3c(=O)c(C(=O)O)cn1c23.O [LEVOFLOXACIN]", "result-modifier": "=", "MIC50 (µg/mL)": 32}
{"compound": "COc1c(N2CC3(CC3)[C@](C)(N)C2)c(F)cc2c(=O)c(C(=O)O)cn([C@@H]3C[C@@H]3F)c12", "result-modifier": "=", "MIC50 (µg/mL)": 4}
{"compound": "COc1c(N2CCNC(C)C2)c(F)cc2c(=O)c(C(=O)O)cn(C3CC3)c12 (stereo not given) [GATIFLOXACIN]", "result-modifier": "=", "MIC50 (µg/mL)": 16}

Data credit: ChEMBL document CHEMBL1255490
